Target: α2AAR (Homo sapiens)
Construct: host or cells: HEK293 (membranes)
Sequence (P08913 whole entry, species assumed): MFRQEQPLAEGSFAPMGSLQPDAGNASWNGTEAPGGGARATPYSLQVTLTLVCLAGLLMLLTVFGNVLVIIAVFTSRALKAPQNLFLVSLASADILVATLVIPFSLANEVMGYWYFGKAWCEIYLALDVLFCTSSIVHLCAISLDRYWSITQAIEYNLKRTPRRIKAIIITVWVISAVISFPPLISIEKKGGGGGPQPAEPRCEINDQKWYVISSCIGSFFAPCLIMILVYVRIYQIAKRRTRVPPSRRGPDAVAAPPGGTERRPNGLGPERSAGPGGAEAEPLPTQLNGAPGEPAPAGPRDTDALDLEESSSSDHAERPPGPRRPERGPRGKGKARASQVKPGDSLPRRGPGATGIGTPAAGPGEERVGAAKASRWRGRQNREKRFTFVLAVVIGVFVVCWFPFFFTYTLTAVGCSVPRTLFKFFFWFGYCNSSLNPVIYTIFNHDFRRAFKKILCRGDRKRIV
Assay: α2AAR binding assay ([3H]-RX 821002 radioligand)
Conditions: [3H]-RX 821002 0.5 nM, HEK293 membranes; read-out: α2A affinity (Ki)
readout.label: Ki

Return value of Ki for input Cc1cccc(C(c2c[nH]cn2)c2cccc(OCCNS(C)(=O)=O)c2F)c1C (centres unmarked) , no commentary.
0.01 to 0.05 µM

Please report Ki for the following compound: C=CC(=O)Nc1cccc(C(c2c[nH]cn2)c2cccc(C)c2C)c1 (centres unmarked)
0.05 to 0.25 µM

Fill in Ki for record COc1cc(CC(c2c[nH]cn2)c2cccc(C)c2C)ccc1C(=O)NC1CCOCC1 (centres unmarked)
< 0.01 µM

Identify Ki associated with the compound Cc1cccc(C(Cc2ccc(C(N)=O)c(F)c2)c2c[nH]cn2)c1C (single isomer, unassigned) [156-A]
> 1 µM

Look up and state reported Ki for Cc1cccc(C(c2cccc(NS(=O)(=O)CCc3cncnc3)c2)c2c[nH]cn2)c1C (centres unmarked)
0.01 to 0.05 µM

Quickly give me recorded Ki for Cc1cccc(C(Cc2ccc(C(N)=O)c(F)c2)c2c[nH]cn2)c1C (racemic) [compound 156]
< 0.01 µM

Answer with the recorded Ki for the compound listed here: CC(=O)N1CCC(CC(=O)Nc2cccc(C(c3c[nH]cn3)c3cccc(C)c3C)c2)CC1 (centres unmarked)
0.01 to 0.05 µM

Specify reported Ki for the compound shown: Cc1cccc(C(Cc2ccc(NC(=O)CC3CCCCO3)cc2)c2c[nH]cn2)c1C (centres unmarked)
< 0.01 µM
